target: recombinant human JAK1 kinase domain protein (Residues 854-1154) (Homo sapiens, UniProt P23458); construct: human JAK1 kinase domain protein (Residues 854-1154); test: JAK1 biochemical assay (LabChip mobility shift, Ki); conditions: read-out: Biochem JAK1 Ki
Sequence (P23458 854-1154): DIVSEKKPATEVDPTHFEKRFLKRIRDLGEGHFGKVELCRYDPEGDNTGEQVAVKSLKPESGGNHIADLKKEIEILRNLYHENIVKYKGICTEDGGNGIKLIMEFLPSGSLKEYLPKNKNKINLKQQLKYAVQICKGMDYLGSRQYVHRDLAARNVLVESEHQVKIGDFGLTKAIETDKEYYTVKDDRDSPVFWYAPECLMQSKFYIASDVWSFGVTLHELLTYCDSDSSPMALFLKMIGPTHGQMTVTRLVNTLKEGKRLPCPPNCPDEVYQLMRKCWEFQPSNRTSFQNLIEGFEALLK
pKi: −log10 of the molar value.
measure: pKi

Check out these entries, answers already filled in.
compound	measure	dataValue
CN1CC(O)(c2cncc(Oc3ccc(OC(F)F)c(-c4nn(C)cc4NC(=O)c4cnn5cccnc45)c3)c2)C1	pKi	9.24
CN(C)CCn1cc(Oc2ccc(OC(F)F)c(-c3nn(C)cc3NC(=O)c3cnn4cccnc34)c2)cn1	pKi	8.80
Cn1cc(NC(=O)c2cnn3cccnc23)c(-c2cc(Oc3cccc(C4CNCCO4)c3)ccc2OC(F)F)n1 (stereo not shown) [Example 82]	pKi	9.24

a: Cn1cc(NC(=O)c2cnn3cccnc23)c(-c2cc(Oc3cnn(C(F)F)c3)ccc2OC(F)F)n1
b: Cn1cc(NC(=O)c2cnn3cccnc23)c(-c2cc(Oc3cnn(C4CC(O)C4)c3)ccc2OC(F)F)n1 (stereo not shown) [Example 119]
Ask: Please choose the item with the lower pKi value from this pair: a and b Answer by quoting the chosen item's label.
Result: b
